test system: human APOE RNA; test: Activity in APOE C57BL/6NTac-Apoeem7250 knock-in mice, single ICV bolus, 8 weeks (Example 11); format: in vivo; details: spinal cord; single ICV bolus 300 μg; 8 weeks post treatment; normalized to mouse Ppia
Strand notation (5' to 3'): a small letter for the sugar, then the base; units joined by * are phosphorothioate-linked, units joined directly phosphodiester-linked; [ ] holds rarer units or linkages, { } end groups; capitals alone tell only the bases. [ms] = mesyl phosphoramidate linkage; e = 2'-O-(2-methoxyethyl) (MOE); k = constrained ethyl (cEt); [5mC] = 5-methylcytosine; d = 2'-deoxy (DNA)
experimental.endpoint: APOE RNA (% control) Spinal Cord
Express the result in % control but write the number alone.

1652911: 5-10-5 MOE gapmer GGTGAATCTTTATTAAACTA, linkages sooosszzzssssssooss (antisense eG*eGeTeGeA*dA*dT[ms]d[5mC][ms]dT[ms]dT*dT*dA*dT*dT*dA*eAeAe[5mC]*eT*eA) [compound 1652911]    57

Now examine the next entry.
State APOE RNA (% control) Spinal Cord on human APOE RNA. Entry: 1778123: modified oligonucleotide complementary to human APOE RNA (eA*e[5mC]eTeTeG*eG*dT*dG[ms]dA[ms]dA*dT*d[5mC]*dT*dT*dT*dA[ms]kTkT*eA*eA; antisense) [compound 1778123]
29

* * *

tested on: human APOE RNA; experiment: Dose-dependent inhibition of human APOE RNA in HepG2 cells, electroporation, 50,000 cells per well, RT-PCR normalized to GAPDH (Example 4, Tables 8-10); format: cell-based; conditions: 8,000 nM; HepG2, electroporation, 16-hour treatment
Strand notation (5' to 3'): a small letter for the sugar, then the base; units joined by * are phosphorothioate-linked, units joined directly phosphodiester-linked; [ ] holds rarer units or linkages, { } end groups; capitals alone tell only the bases. e = 2'-O-(2-methoxyethyl) (MOE); k = constrained ethyl (cEt); [5mC] = 5-methylcytosine; d = 2'-deoxy (DNA)
experimental.endpoint: APOE RNA (% UTC)
Kindly report the value followed by its unit.

1757569 (eA*e[5mC]eTkTkG*dG*dT*dG*dA*dA*dT*d[5mC]*dT*dT*dT*kAeTeT*eA*eA; antisense) [Compound 1757569]    18 % UTC

Now examine the next entry.
Provide only the value of recorded APOE RNA (% UTC) for Compound No. 1517891: comparator of WO 2022/066956; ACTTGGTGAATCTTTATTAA, sugar eeeeeddddddddddeeeee, linkages sooosssssssssssooss (MOE gapmer, mixed PS/PO linkages, chemistry not fully specified) [reference compound]
17 % UTC

* * *

system: human APOE RNA; experiment: Activity in APOE C57BL/6NTac-Apoeem7250 knock-in mice, single ICV bolus, 20 weeks (Example 13); type: in vivo; details: spinal cord; single ICV bolus 300 μg; 20 weeks post treatment; normalized to mouse Ppia
Strand notation (5' to 3'): a small letter for the sugar, then the base; units joined by * are phosphorothioate-linked, units joined directly phosphodiester-linked; [ ] holds rarer units or linkages, { } end groups; capitals alone tell only the bases. [ms] = mesyl phosphoramidate linkage; e = 2'-O-(2-methoxyethyl) (MOE); k = constrained ethyl (cEt); [5mC] = 5-methylcytosine; d = 2'-deoxy (DNA)
Outcome: yes for APOE RNA (% control) Spinal Cord of at least 30 % control; no for anything lower.

API: above_or_equal(metric=APOE RNA (% control) Spinal Cord, cutoff=30 % control) for item 1779701 (e[5mC]*eTeT*kG*kG*dT[ms]dG[ms]dA[ms]dA[ms]dT*d[5mC]*dT*dT*dT*dA[ms]dT*eT*eA*eA*eA; antisense) [Compound 1779701]
no

API: above_or_equal(metric=APOE RNA (% control) Spinal Cord, cutoff=30 % control) for item Aes^mCeoTeoTesGesGksTdsGdzAdzAdzTds^mCdsTdsTdsTdsAdzTksTksAesAe (eA*e[5mC]eTeT*eG*kG*dT*dG[ms]dA[ms]dA[ms]dT*d[5mC]*dT*dT*dT*dA[ms]kT*kT*eA*eA) [Compound No. 1757576]
yes

API: above_or_equal(metric=APOE RNA (% control) Spinal Cord, cutoff=30 % control) for item 1778119 (eA*e[5mC]eTeTeG*eG*dT*dG[ms]dA[ms]dA*dT*d[5mC]*dT*dT*dT*dA[ms]kTeT*eA*eA; antisense) [Compound 1778119]
yes

API: above_or_equal(metric=APOE RNA (% control) Spinal Cord, cutoff=30 % control) for item 1778108 (eA*e[5mC]eTeTeG*kG*dT*dG[ms]dA[ms]dA*dT*d[5mC]*dT*dT*dT*dA[ms]eT*eT*eA*eA; antisense) [Compound 1778108]
no

API: above_or_equal(metric=APOE RNA (% control) Spinal Cord, cutoff=30 % control) for item 1757572 (eA*e[5mC]eTeT*kG*kG*dT*dG[ms]dA[ms]dA[ms]dT*d[5mC]*dT*dT*dT*dA[ms]eT*eT*eA*eA; antisense) [Compound 1757572]
yes
